All values here come from paper PMC9021956.

- target_desc: HLA-A0207 (Homo sapiens, UniProt P04439, D140Y/D185E/D98H/E176V/E277Q/G131W/G231S/I119V/I121R/I166T/I218V/L300P/L318F/N151K/N90K/P208A/P217A/Q86G/Q94H/R138H/R169H/T345S/Y123C)
- Construct: expressed in transfected cells; host or cells: HMy2.CIR
- assay_method_text: cell-based
- Assay type: binding
- conditions: HLA-A0207 HMy2.CIR cells; competitor peptide 5μM; 24 hours; flow cytometry; read-out: 5μM Inhibition (%)
Residues, ends and D or L forms follow the SMILES beside them.
Let's look at some compounds and their measured inhibition at 5 µM.
Express the result in % but write the number alone.

| compound | unit_text | reported |
| --- | --- | --- |
| CSCC[C@H](NC(=O)[C@@H](N)CCSC)C(=O)N[C@@H](Cc1c[nH]c2ccccc12)C(=O)N[C@@H](Cc1ccc(O)cc1)C(=O)N[C@@H](Cc1c[nH]c2ccccc12)C(=O)NCC(=O)N1CCC[C@H]1C(=O)N[C@@H](CO)C(=O)N[C@@H](CC(C)C)C(=O)O [Epitope P72] | % | 52 |

Field request: inhibition at 5 µM | item: CC(C)C[C@H](NC(=O)[C@@H](N)Cc1ccccc1)C(=O)N1CCC[C@H]1C(=O)N[C@@H](CO)C(=O)N[C@@H](CC(=O)O)C(=O)N[C@@H](Cc1ccccc1)C(=O)N[C@@H](Cc1ccccc1)C(=O)N1CCC[C@H]1C(=O)N[C@@H](CO)C(=O)O [Epitope P67] (H-FLPSDFFPS-OH; N-terminus and C-terminus assumed)
42

# repeat for CC(C)C[C@H](NC(=O)[C@H](CO)NC(=O)[C@H](Cc1ccccc1)NC(=O)[C@H](Cc1ccccc1)NC(=O)CNC(=O)[C@H](C)NC(=O)[C@H](CCC(N)=O)NC(=O)[C@@H](N)CC(C)C)C(=O)N[C@H](C(=O)N[C@@H](CCCCN)C(=O)O)[C@@H](C)O [Epitope P103] (H-LQAGFFSLTK-OH; N-terminus and C-terminus assumed)
39

# repeat for CC(C)C[C@H](NC(=O)[C@H](CC(C)C)NC(=O)[C@@H](N)Cc1ccccc1)C(=O)N[C@@H](C)C(=O)N[C@@H](CCC(N)=O)C(=O)N[C@@H](Cc1ccccc1)C(=O)N[C@H](C(=O)N[C@@H](CO)C(=O)N[C@@H](C)C(=O)O)[C@@H](C)O [Epitope P76]
41

====

- target_desc: HLA-A0206 (Homo sapiens, UniProt P04439, D140Y/D185E/D98H/E176V/E277Q/F33Y/G131W/G231S/I119V/I121R/I166T/I218V/L300P/L318F/N151K/N90K/P208A/P217A/Q86G/Q94H/R138H/R169H/T345S)
- Construct: expressed in transfected cells; host or cells: HMy2.CIR
- assay_method_text: cell-based
- Assay type: binding
- conditions: HLA-A0206 HMy2.CIR cells; competitor peptide 15μM; 24 hours; flow cytometry; read-out: 15μM Inhibition (%)
Residues, ends and D or L forms follow the SMILES beside them.
assay_endpoint: inhibition at 15 µM (%)
Express the result in % but write the number alone.

Field request: inhibition at 15 µM | item: CC(C)C[C@H](NC(=O)[C@H](Cc1ccccc1)NC(=O)[C@H](C)NC(=O)[C@H](CCCCN)NC(=O)[C@H](Cc1ccc(O)cc1)NC(=O)[C@@H](NC(=O)[C@@H]1CCCN1)[C@@H](C)O)C(=O)N[C@@H](CS)C(=O)N[C@@H](CCCCN)C(=O)O [Epitope P16] (H-PTYKAFLCK-OH; N-terminus and C-terminus assumed)
8.08
